System: Candida albicans
methodSummary: Minimal Inhibitory Concentration (MIC) assay, broth microdilution per CLSI;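 also: two read times 24 hr and 48 hr of incubation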
Assay type: cell-based
testContext: Candida albicans; 48 hr reading (second value of cell 24 hr/48 hr); read-out: Minimum Inhibitory Concentrations against Yeast Isolates, Candida albicans
propertyMeasured: MIC

>>> print(df.to_string())
                                    compound  reportedvalue
 0  Nc1ccc(CCCCc2ccc(CC(=O)NO)cc2)cc1 [Example 31]     > 16 µg/mL
 1  CC(C)(C(=O)NO)c1ccc(CCCCc2ccccc2)cc1 [Example 56]      > 2 µg/mL
 2  COCCOCCOCCNS(=O)(=O)c1ccc(CCCCc2ccc(CC(=O)NO)cc2)cc1 [Example 12]     > 64 µg/mL
 3  CN1CCN(CCNC(=O)Nc2cccc(CCCCc3ccc(CC(=O)NO)cc3)c2)CC1 [Example 49]     > 64 µg/mL
 4  O=C(Cc1ccc(CCCCc2ccc(C(=O)N3CCN(C/C=C/c4ccccc4)CC3)cc2)cc1)NO [Example 20]      > 8 µg/mL
 5  O=C(Cc1ccc(CCCCc2ccc(OCCCN3CCOCC3)cc2)cc1)NO [Example 16]     > 16 µg/mL
 6  O=C(Cc1ccc(CCC/C(=N\O)c2ccccc2)cc1)NO [Example 27]       64 µg/mL
 7  O=C(Cc1ccc(CCCC(F)(F)c2ccccc2)cc1)NO [Example 29]        2 µg/mL
 8  O=C(Cc1ccc(CCCC(O)c2ccccc2)cc1)NO (centres unmarked) [Example 25]     > 64 µg/mL
 9  O=C(Cc1ccc(CCCCc2ccc(C(=O)N3CCN(CCn4ccnc4)CC3)cc2)cc1)NO [Example 21]     > 64 µg/mL
10  COCCOCCOCC(=O)Nc1cccc(CCCCc2ccc(CC(=O)NO)cc2)c1 [Example 40]     > 64 µg/mL
11  CC(=O)Nc1ccccc1CCCCc1ccc(CC(=O)NO)cc1 [Example 45]     > 64 µg/mL
12  O=C(Cc1ccc(C(O)CCCc2ccccc2)cc1)NO (centres unmarked) [Example 59]     > 64 µg/mL
13  O=C(Cc1ccc(CCCCc2cccc(NC(=O)CO)c2)cc1)NO [Example 41]     > 32 µg/mL
14  O=C(Cc1ccc(CCCCc2ccccc2)o1)NO [Example 62]       32 µg/mL
15  COCCOCCOCCNC(=O)c1ccc(CCCCc2ccc(CC(=O)NO)cc2)cc1 [Example 11]     > 64 µg/mL
16  COC(=O)Nc1ccc(CCCCc2ccc(CC(=O)NO)cc2)cc1 [Example 48]      > 4 µg/mL
17  O=C(Cc1ccc(CCCCc2ccc(O)c(O)c2)cc1)NO [Example 19]       32 µg/mL
18  OC(Cn1cncn1)(Cn1cncn1)c1ccc(F)cc1F [Fluconazole, reference compound]        1 µg/mL
19  Cn1ccc2cc(CCCCc3ccc(CC(=O)NO)cc3)ccc21 [Example 6]      0.5 µg/mL
20  O=C(Cc1ccc(CCCCc2ccc(CC(=O)NO)cc2)cc1)NO [Example 7]      > 8 µg/mL
21  Nc1cccc(CCCCc2ccc(CC(=O)NO)cc2)c1 [Example 32]       32 µg/mL
22  Cc1ccc(CCCCc2ccc(CC(=O)NO)cc2)cc1 [Example 4]     0.25 µg/mL
23  O=C(Cc1ccc(CCC(O)Cc2ccccc2)cc1)NO (centres unmarked) [Example 57]     > 64 µg/mL
24  CC(C(=O)NO)c1ccc(CCCCc2ccccc2)cc1 (centres unmarked) [Example 55]        4 µg/mL
25  O=C(Cc1ccc(CCCC(=O)c2ccccc2)cc1)NO [Example 28]       32 µg/mL
26  O=C(Cc1ccc(CCCCc2ccc(C(=O)N3CCOCCOCCOCCOCCOCC3)cc2)cc1)NO [Example 24]     > 64 µg/mL
27  CN(C)CCSCC(=O)Nc1ccc(CCCCc2ccc(CC(=O)NO)cc2)cc1 [Example 38]     > 64 µg/mL
28  O=C(Cc1ccc(CCCCc2cccc(NC(=O)NCCN3CCOCC3)c2)cc1)NO [Example 50]     > 64 µg/mL
29  O=C(Cc1ccc(CCCCc2ccc(OCCN3CCCC3)cc2)cc1)NO [Example 18]     > 64 µg/mL
30  COCCOCCOCC(=O)Nc1ccc(CCCCc2ccc(CC(=O)NO)cc2)cc1 [Example 35]       64 µg/mL
31  CC(CCCc1ccc(CC(=O)NO)cc1)c1ccccc1 (centres unmarked) [Example 30]      0.5 µg/mL
32  O=C(Cc1ccc(CCCC(F)c2ccccc2)cc1)NO (centres unmarked) [Example 26]        8 µg/mL
33  O=C(Cc1ccc(CCCCc2ccc(C(=O)O)cc2)cc1)NO [Example 14]     > 64 µg/mL
34  CC(=O)Nc1ccc(CCCCc2ccc(CC(=O)NO)cc2)cc1 [Example 39]      > 8 µg/mL
35  CN1CCC(C(=O)Nc2ccc(CCCCc3ccc(CC(=O)NO)cc3)cc2)CC1.Cl [Example 34]     > 64 µg/mL
36  COCCOCCOCCOCCC(=O)Nc1ccc(CCCCc2ccc(CC(=O)NO)cc2)cc1 [Example 37]     > 64 µg/mL
37  O=C(Cc1ccc(CCCCC2CCCCC2)cc1)NO [Example 8]     0.25 µg/mL

Sourced from patent US20140081017A1
